# protocol_description: Plasma toxicokinetics in dogs, fourteen day repeat dose
# Type: in vivo, dog
# measurement_conditions: female, dog, plasma, po, 0.5 mg/kg, female dogs, Gr 2, 0.5 mg/kg, D14

| compound | half-life, h |
| --- | --- |
| CC[C@H]1CC2C[C@H]3c4[nH]c5ccc(O)cc5c4CCN(C2)C13 [noribogaine] | 1.1 |

---

# protocol_description: Plasma toxicokinetics in dogs, fourteen day repeat dose
# Type: in vivo, dog
# measurement_conditions: male, dog, plasma, po, 0.5 mg/kg, male dogs, Gr 2, 0.5 mg/kg, D1; read-out: AUC0-24 h
# Method: Noribogaine HCl was administered to groups of 4 male and 4 female dogs by single oral gavage daily for 14 days at doses of 0, 0.5, 1.0 and 5.0 mg/kg/day. An additional group of 4 male and 4 female dogs received either the vehicle control or 5.0 mg/kg/day for 14 days and were held for an additional 28 days after cessation of dosing to assess recovery from any potential drug-induced changes. […]

| molecule_smiles | AUC(0-t) / ng·h/mL |
| --- | --- |
| CC[C@H]1CC2C[C@H]3c4[nH]c5ccc(O)cc5c4CCN(C2)C13 | 59.7 |
